As a worked illustration, we turn to pIC50 data collected for Estrogen receptor beta (Homo sapiens).
Reminder that pIC50 means the negative base-10 logarithm of the concentration expressed in mol/L.

{"SAMPLE SMILES": "CCc1cc(O)cc2ncn(-c3ccc(O)cc3)c(=S)c12", "TEST TARGET": "Estrogen receptor beta (Homo sapiens)", "pIC50": 6.81}
{"SAMPLE SMILES": "CCc1nc2cc(O)cc(O)c2c(=O)n1-c1ccc(O)cc1", "TEST TARGET": "Estrogen receptor beta (Homo sapiens)", "pIC50": 5.24}
{"SAMPLE SMILES": "O=c1c2c(O)cc(O)cc2ncn1-c1ccccc1", "TEST TARGET": "Estrogen receptor beta (Homo sapiens)", "pIC50": 4.73}

Prompt: API: value(readout=pIC50, system=Estrogen receptor beta (Homo sapiens)) for record O=c1c2ccc(O)cc2nc(-c2ccc(O)cc2)n1-c1ccc(O)cc1
Response: 3.36

Prompt: API: value(readout= pIC50, system= Estrogen receptor beta (Homo sapiens), query= O=c1c2c(O)cc(O)cc2ncn1-c1ccc(O)cn1 )
Response: 5.45

Prompt: Fill in the recorded pIC50 for this molecule, with Estrogen receptor beta (Homo sapiens) as test system: Oc1ccc(-n2cnc3cc(O)cc(O)c3c2=S)nc1
Sequence (Q92731 whole entry): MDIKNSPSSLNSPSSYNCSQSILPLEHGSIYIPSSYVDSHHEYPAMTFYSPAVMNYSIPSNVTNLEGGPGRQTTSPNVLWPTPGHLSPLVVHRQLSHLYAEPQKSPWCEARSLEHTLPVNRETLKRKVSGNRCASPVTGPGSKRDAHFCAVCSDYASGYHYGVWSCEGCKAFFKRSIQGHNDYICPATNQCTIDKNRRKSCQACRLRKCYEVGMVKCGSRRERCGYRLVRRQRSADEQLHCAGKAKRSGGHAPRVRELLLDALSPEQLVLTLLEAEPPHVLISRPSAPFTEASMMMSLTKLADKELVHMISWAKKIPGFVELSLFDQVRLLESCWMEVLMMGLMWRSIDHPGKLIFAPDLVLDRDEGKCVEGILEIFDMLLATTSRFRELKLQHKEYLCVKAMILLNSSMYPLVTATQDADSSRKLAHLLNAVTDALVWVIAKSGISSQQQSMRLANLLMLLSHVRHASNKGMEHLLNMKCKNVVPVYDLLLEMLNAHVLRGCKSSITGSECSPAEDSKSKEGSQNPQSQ
Response: 6.29

Prompt: Form field: pIC50 recorded for CCOc1cc(O)cc2ncn(-c3ccc(O)cc3)c(=O)c12 with Estrogen receptor beta (Homo sapiens) (enter value)
Response: 4.35

Prompt: Test system Estrogen receptor beta (Homo sapiens); read-out pIC50; what value for Cc1c(O)cc(O)c2c(=O)n(-c3ccc(O)cc3)cnc12 ?
Response: 5.89

Prompt: Provide value of pIC50 for this record tested with Estrogen receptor beta (Homo sapiens): COc1cc(O)c2c(=O)n(-c3ccc(O)cc3)c(=S)[nH]c2c1
Response: 4.14

Prompt: Give recorded pIC50 with Estrogen receptor beta (Homo sapiens) for the following molecule: O=c1c2c(-c3ccccc3)cc(O)cc2ncn1-c1ccc(O)cc1
Response: 4.51

Prompt: Request - read-out pIC50 | tested on Estrogen receptor beta (Homo sapiens) | molecule CCCc1nc2cc(O)cc(O)c2c(=O)n1-c1ccc(O)cc1
Response: 5.49

Prompt: Find the measured pIC50: item Oc1ccc(-n2cnc3cc(O)cc(O)c3c2=S)cc1 , target or system Estrogen receptor beta (Homo sapiens).
Response: 7.33

Prompt: Identify the measured pIC50 of COc1cc(O)c2c(=O)n(-c3ccc(O)cc3)cnc2c1 for Estrogen receptor beta (Homo sapiens).
Response: 5.02

Prompt: Param readout= pIC50; system= Estrogen receptor beta (Homo sapiens); entry= O=c1c2c(O)cc(O)cc2ncn1-c1ccc(O)cc1F ; returns value.
Response: 6.59

Prompt: Item Cc1cc(O)cc2ncn(-c3ccc(O)cc3)c(=O)c12 with Estrogen receptor beta (Homo sapiens) - pIC50?
Response: 6.50

Prompt: Field: pIC50 (Estrogen receptor beta (Homo sapiens)). Entry: Oc1cc(O)c2c(=S)n(-c3ccc(O)c(F)c3)cnc2c1
Response: 6.99

Prompt: Value wanted: pIC50 (Estrogen receptor beta (Homo sapiens)) of entry O=c1c2c(O)cc(O)cc2ncn1-c1ccc(O)c(Cl)c1
Response: 5.14

Prompt: // fetch Estrogen receptor beta (Homo sapiens) pIC50 for Cc1cc(O)cc2ncn(-c3ccc(O)cc3)c(=S)c12
Response: 7.10

Prompt: # query: pIC50 | item O=c1[nH]c2cc(O)cc(O)c2c(=O)n1-c1ccc(O)cc1 | system: Estrogen receptor beta (Homo sapiens)
Response: 5.03

Prompt: I'm curious: which pIC50 was measured for C=Cc1cc(O)cc2ncn(-c3ccc(O)cc3)c(=O)c12 tested on Estrogen receptor beta (Homo sapiens)?
Response: 4.77

Prompt: # get_value(readout= pIC50, system= Estrogen receptor beta (Homo sapiens)) for O=c1c2c(O)cc(O)cc2ncn1-c1ccc(O)c(F)c1
Response: 6.19

Prompt: Notebook: pull reported pIC50 for Estrogen receptor beta (Homo sapiens), entry O=c1c2c(CO)cc(O)cc2ncn1-c1ccc(O)cc1
Response: 7.62

Prompt: Find the measured pIC50: item Oc1ccc(-c2coc3cc(O)cc(O)c3c2=S)cc1 , target or system Estrogen receptor beta (Homo sapiens).
Response: 5.87

Prompt: Estrogen receptor beta (Homo sapiens) / pIC50 / O=c1c2c(O)cc(O)cc2ncn1-c1ccc(O)cc1Cl : value?
Response: 6.58
